target_of_assay: SUDV GPddmuc (Sudan virus (SUDV), UniProt Q66814 33-650)
method: ELISA
value_type: EC50 (nM)

# binder, value_type, quantitative_readout
data = [
    ("FVM37 (antibody, V domains shown) VH: QVQLVQSGAEVKRPGESLKISCKTSGYRFTSSWISWVRQMPGKGLEWLGSIYPGDSETKYNPSFQGHVTISADKSVTTTYLKWSSLKASDTATYYCVKGSETWGQGVLVTVSS VL: SSELTQPASLSASPGASASLTCTFSGGINVAGYNILWYQQKAGSPPRYLLRYKSDSTKDQGSGVPSRFSGSKDASANTGILRISGLQSEDEADYYCAIGHSSGWIFGGGTRLTVL", "EC50", 0.033),
    ("FVM13 (antibody, V domains shown) VH: EVQLVQSGAEVKRPGESLKISCKTSGYTFTSSWISWVRQMPGKGLEWLGSIYPGDSDTRYNPSFQGHVTISADTSIITTHLQWSSLKASDTATYYCVKGSETWGQGVLVTVSS VL: KPMLTQPTSLSASPGASASLTCTFSGGINVAGYNILWYQQKAGSPPRYLLRYKSDSTKDQGSGVPSRFSGSKDASANTGILRISGLQSEDEADYYCAIGHSSGWIFGGGTRLTVL", "EC50", 0.051),
]
